// provenance: patent US20180346588A1

# test_system: T1, recombinant human mesothelin (MSLN) (human, UniProt Q13421 296-580, limits assumed)
# T1 construct: also called human MSLN; recombinant human MSLN
# T1 sequence (Q13421 other isoform, or with tags, fused parts or gaps limits assumed): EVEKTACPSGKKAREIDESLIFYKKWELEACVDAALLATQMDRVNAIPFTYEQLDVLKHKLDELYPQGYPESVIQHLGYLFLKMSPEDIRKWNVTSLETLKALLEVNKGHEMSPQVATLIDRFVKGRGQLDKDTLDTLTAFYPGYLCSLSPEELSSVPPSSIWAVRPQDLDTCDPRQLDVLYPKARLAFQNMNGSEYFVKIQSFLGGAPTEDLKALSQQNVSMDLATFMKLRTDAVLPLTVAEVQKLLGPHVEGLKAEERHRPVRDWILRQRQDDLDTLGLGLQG
# protocol_text: SPR, Biacore T-200; MSLN amine-coupled to CM5 chip, IgG in flow
So I've got a bunch of binders here, and I need their Kd values.
Answers are plain numbers, in nM.

clone 56 (MS502 heavy chain variable region mutation antibody) (antibody, V domains shown, SPR done with IgG (human heavy chain constant region vector, MS502 light chain)) VH: EVQLLESGGGLVQPGGSLRLSCAASGFTFSNYAMSWVRQAPGKGLEWVSGIPPDSASKYYADSVRGRFTVSRDNSKNTLYLQMNSLRAEDTAVYYCAKNMLSFDYWGQGTLVTVSS VL: QSVLTQPPSASGTPGQRVTISCTGSSSNIGSNAVSWYQQLPGTAPKLLIYYNSKRPSGVPDRFSGSKSGTSASLAISGLRSEDEADYYCGSWDSSLNGYVFGGGTKVTVLG | 0.125
clone 2-30-C2G4 antibody (antibody, V domains shown, IgG (human IgG1 heavy chain constant region; light chain constant region said to be human kappa)) VH: EVQLLESGGGLVQPGGSLRLSCAASGFTFSNYAMSWVRQAPGKGLEWVSGIPPDSNSKYYADSVRGRFTVSRDNSKNTLYLQMNSLRAEDTAVYYCAKNMRTFDYWGQGTLVTVSS VL: QSVLTQPPSASGTPGQRVTISCTGSSSNIGSNAVSWYQQLPGTAPKLLIYYNSKRPSGVPDRFSGSKSGTSASLAISGLRSEDEADYYCGSWDPSLNGYVFGGGTKVTVLG | 0.234
clone 2-73-C2G4 antibody (antibody, V domains shown, IgG (human IgG1 heavy chain constant region; light chain constant region said to be human kappa)) VH: EVQLLESGGGLVQPGGSLRLSCAASGFTFSNYAMSWVRQAPGKGLEWVSGIPPNSDSKYYADSVRGRFTVSRDNSKNTLYLQMNSLRAEDTAVYYCAKNMLSFDYWGQGTLVTVSS VL: QSVLTQPPSASGTPGQRVTISCTGSSSNIGSNAVSWYQQLPGTAPKLLIYYNSKRPSGVPDRFSGSKSGTSASLAISGLRSEDEADYYCGSWDPSLNGYVFGGGTKVTVLG | 0.165

Go through the items and report each one's Kd.
1. clone 56-C2G4 antibody (antibody, V domains shown, IgG (human IgG1 heavy chain constant region; light chain constant region said to be human kappa)) VH: EVQLLESGGGLVQPGGSLRLSCAASGFTFSNYAMSWVRQAPGKGLEWVSGIPPDSASKYYADSVRGRFTVSRDNSKNTLYLQMNSLRAEDTAVYYCAKNMLSFDYWGQGTLVTVSS VL: QSVLTQPPSASGTPGQRVTISCTGSSSNIGSNAVSWYQQLPGTAPKLLIYYNSKRPSGVPDRFSGSKSGTSASLAISGLRSEDEADYYCGSWDPSLNGYVFGGGTKVTVLG
2. clone 2-30 (MS502 heavy chain variable region mutation antibody) (antibody, V domains shown, SPR done with IgG (human heavy chain constant region vector, MS502 light chain)) VH: EVQLLESGGGLVQPGGSLRLSCAASGFTFSNYAMSWVRQAPGKGLEWVSGIPPDSNSKYYADSVRGRFTVSRDNSKNTLYLQMNSLRAEDTAVYYCAKNMRTFDYWGQGTLVTVSS VL: QSVLTQPPSASGTPGQRVTISCTGSSSNIGSNAVSWYQQLPGTAPKLLIYYNSKRPSGVPDRFSGSKSGTSASLAISGLRSEDEADYYCGSWDSSLNGYVFGGGTKVTVLG
3. clone 2-78 (MS502 heavy chain variable region mutation antibody) (antibody, V domains shown, SPR done with IgG (human heavy chain constant region vector, MS502 light chain)) VH: EVQLLESGGGLVQPGGSLRLSCAASGFTFSNYAMSWVRQAPGKGLEWVSGIPPDSGSKYYADSVRGRFTVSRDNSKNTLYLQMNSLRAEDTAVYYCAKNMFSFDYWGQGTLVTVSS VL: QSVLTQPPSASGTPGQRVTISCTGSSSNIGSNAVSWYQQLPGTAPKLLIYYNSKRPSGVPDRFSGSKSGTSASLAISGLRSEDEADYYCGSWDSSLNGYVFGGGTKVTVLG
4. clone 2-78-C2G4 antibody (antibody, V domains shown, IgG (human IgG1 heavy chain constant region; light chain constant region said to be human kappa)) VH: EVQLLESGGGLVQPGGSLRLSCAASGFTFSNYAMSWVRQAPGKGLEWVSGIPPDSGSKYYADSVRGRFTVSRDNSKNTLYLQMNSLRAEDTAVYYCAKNMFSFDYWGQGTLVTVSS VL: QSVLTQPPSASGTPGQRVTISCTGSSSNIGSNAVSWYQQLPGTAPKLLIYYNSKRPSGVPDRFSGSKSGTSASLAISGLRSEDEADYYCGSWDPSLNGYVFGGGTKVTVLG

1: 0.163; 2: 0.166; 3: 0.0163; 4: 0.0372
